# tgt: T1, IL10Rα/IL2Rγ receptor (human) (UniProt Q13651)
# T1 sequence (looked up) 1: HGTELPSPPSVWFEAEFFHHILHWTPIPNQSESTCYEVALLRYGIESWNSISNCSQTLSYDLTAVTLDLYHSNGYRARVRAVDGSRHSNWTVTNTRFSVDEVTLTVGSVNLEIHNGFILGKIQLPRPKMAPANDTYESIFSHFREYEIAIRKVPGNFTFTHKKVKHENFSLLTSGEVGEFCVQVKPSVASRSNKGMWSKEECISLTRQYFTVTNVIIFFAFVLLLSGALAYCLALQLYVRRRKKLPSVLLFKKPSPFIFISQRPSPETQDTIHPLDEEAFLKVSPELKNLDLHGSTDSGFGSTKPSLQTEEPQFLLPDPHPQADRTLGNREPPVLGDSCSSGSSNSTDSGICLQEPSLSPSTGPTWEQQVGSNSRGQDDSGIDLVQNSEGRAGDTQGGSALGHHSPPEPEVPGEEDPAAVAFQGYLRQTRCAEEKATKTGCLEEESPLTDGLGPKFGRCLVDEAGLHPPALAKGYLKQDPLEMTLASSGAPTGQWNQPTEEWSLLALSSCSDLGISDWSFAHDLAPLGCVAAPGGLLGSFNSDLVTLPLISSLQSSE
# T1 sequence (looked up) 2: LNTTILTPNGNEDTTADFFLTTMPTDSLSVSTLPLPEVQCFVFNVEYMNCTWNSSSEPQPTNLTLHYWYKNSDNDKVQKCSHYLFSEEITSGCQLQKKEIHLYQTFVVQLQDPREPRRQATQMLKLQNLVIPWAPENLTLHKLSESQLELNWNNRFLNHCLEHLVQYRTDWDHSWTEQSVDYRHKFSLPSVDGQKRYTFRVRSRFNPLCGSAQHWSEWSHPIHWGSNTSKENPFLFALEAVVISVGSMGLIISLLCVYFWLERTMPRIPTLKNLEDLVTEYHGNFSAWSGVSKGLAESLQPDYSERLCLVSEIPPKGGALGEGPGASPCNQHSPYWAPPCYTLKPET
# assay.summary: cell-based or functional assay
assay.readout: IFNγ secretion, CD8 T cells, at 0 µM (pg/mL)

hIL10Ra_VHH14 - hIL2Rg_VHH19, linker GS, tag his (bispecific antibody, not shown: small tags and cut ends) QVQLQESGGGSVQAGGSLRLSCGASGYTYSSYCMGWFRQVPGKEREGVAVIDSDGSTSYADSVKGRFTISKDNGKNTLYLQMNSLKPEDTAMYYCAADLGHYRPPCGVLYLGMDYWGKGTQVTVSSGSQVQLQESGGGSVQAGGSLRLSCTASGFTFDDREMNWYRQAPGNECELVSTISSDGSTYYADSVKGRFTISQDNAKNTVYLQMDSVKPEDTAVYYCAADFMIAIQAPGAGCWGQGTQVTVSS : 122000
